B1: Membrane-associated guanylate kinase, WW and PDZ domain-containing protein 1, residues 352 to 401; numbered along this chain, Q96QZ7 (parent)
chain: TEELDSELELPAGWEKIEDPVYGIYYVDHINRKTQYENPVLEAKRKKQLE

Variants of: B1
Assay: abundance fitness (aPCA) (normalised: wild type 0, dead -1); higher = more abundant; growth selection in yeast, the domain comes from the species named
Details: Homo sapiens
Decision: abundance fitness compared against -0.2; not below it gives Yes, below it gives No.

Answered cases to consult:
I24H = No
R45W = No
P11E = No
P20M = No
K16P = No
P39H = No
K33A = Yes
Y25M = Yes
K44M = Yes
W14K = No

Exercise: Quick check: does `L49A` have abundance fitness greater than or equal to -0.2?
Key: Yes

Exercise: Quick check: does `R45D` have abundance fitness greater than or equal to -0.2?
Key: Yes

Exercise: Quick check: does `L41C` have abundance fitness greater than or equal to -0.2?
Key: Yes
